Test system: OVCAR-8 ovarian
protocol_details: NCI-60 one-dose screen, 48 h
condition_summary: 10 µM unless noted
About 83,000 compounds went through this panel and 20% of them were active in at least one assay; those are over-represented in the sample as a whole. The source made the active and inactive calls. The calls were made as follows: active = growth percent below 10; inactive = the rest.
Please answer using one outcome listed in t = active, f = inactive

Worked examples follow.
| compound | classification |
| --- | --- |
| CN(C)[C@@H]1C(=O)C(C(N)=O)=C(O)[C@@]2(O)C(=O)C3=C(O)c4c(O)cc(CN5CCc6ccccc6C5)c(Cl)c4C[C@H]3C[C@@H]12 | t |
| COc1ccc2c(c1)Oc1nc(N)c(C#N)c(N)c1C2Sc1ccc(SC)cc1 (configuration not stated) | f |
| C=C1C(=O)O[C@H]2[C@H]1CC/C(COC(=O)N1CCC[C@H]1C(=O)Nc1ccc(OC)c(C(N)=O)c1O)=C\CC[C@@]1(C)O[C@@H]21 | f |
| C=C(C)[C@@H]1CC[C@]2(C(=O)NCCCO)CC[C@]3(C)[C@H](CC[C@@H]4[C@@]5(C)CCCNC(C)(C)[C@@H]5CC[C@]43C)[C@@H]12 | f |
| C#Cc1ccccc1NC(=O)c1sc2nc3c(cc2c1N)CCCCCC3 | f |

Recorded call for Cc1c(Br)cccc1NC(=O)c1sc2nc3c(cc2c1N)CN(Cc1ccccc1)CC3 ?
f

Could you kindly confirm the outcome this assay logged for COc1ccc2nc(-c3ccc(OC)c(OC)c3)cc(-c3nnc(SCC(=O)Nc4ccc(C(C)=O)cc4)o3)c2c1 ?
f

* * *

growth reference
Test system: UACC-62 melanoma
protocol_details: NCI-60 one-dose screen, 48 h (100 = growth as untreated, 0 = no growth, -100 = all killed)
condition_summary: 10 µM unless noted
This is part of a sample that, as a whole, favours compounds with a hit. Of some 83,000 tested, about 20% had one in any assay.
Numeric answer only, unit % assumed.

| molecule | target_under_test | uom | reading |
| --- | --- | --- | --- |
| O=c1[nH]c(-c2cccc(F)c2)cc2cc(F)ccc12 | UACC-62 melanoma | % | 36.4 |

I am curious: what growth value has been reported for N#CC(C#N)=C1NC(c2ccccc2)=C(c2ccccc2)C(c2ccccc2Cl)=C1C#N ?
102

Quick check: growth of COC(=O)c1ccc(NC(=O)CSc2nc(-c3ccc(F)cc3)nc3ccccc23)cc1 ?
93.4

* * *

Test system: MDA-MB-435 melanoma
protocol_details: NCI-60 one-dose screen, 48 h (100 = growth as untreated, 0 = no growth, -100 = all killed)
condition_summary: 10 µM unless noted
The panel holds about 83,000 compounds, 20% with a hit somewhere; the sample as a whole holds those more often.
endpoint_label: growth (%)
Record the value in %, omitting the unit from your answer.

| molecule | uom | growth |
| --- | --- | --- |
| COc1ccc(/C=C/C(=O)c2ccc(NC(=O)CSc3nnc(-c4ccc(OC)c(OC)c4)n3-c3ccccc3)cc2)cc1 | % | 45.3 |

Please give the measured growth for this molecule: Cc1cccc(NC(=O)c2sc3nc4c(cc3c2N)CN(Cc2ccccc2)CC4)c1C
-25.2

Bench note: what growth did Cc1nc2sc(C(=O)Nc3ccccc3Cl)c(N)c2cc1C(C)O (stereo not drawn) show?
5.06

* * *

Reported growth values follow for various molecules
System: MOLT-4 leukemia
protocol_details: NCI-60 one-dose screen, 48 h (100 = growth as untreated, 0 = no growth, -100 = all killed)
condition_summary: 10 µM unless noted
The panel holds about 83,000 compounds, 20% with a hit somewhere; the sample as a whole holds those more often. The source made the active and inactive calls. Rule for the calls: active = growth percent below 10; inactive = the rest.

Item under review: N#Cc1c(-c2ccc(F)cc2)nc(N/N=C/c2cccc(O)c2)nc1N1CCOCC1 . Reported growth?
40% (inactive)

Please look up its growth: Cc1ccc(SC2c3ccc(C)cc3Oc3nc(N)c(C#N)c(N)c32)cc1 (configuration not stated)
7.29% (active)

Requested read-out: growth. Entry: C[C@]12CC[C@@H]3c4ccc(O)cc4CC[C@H]3[C@@H]1C[C@H](O)C2
47.5% (inactive)

Entry NC[C@@H]1CCN(c2cc3c(cc2F)c(=O)n(N)c(=O)n3Cc2ccc(-c3ccccc3)cc2)C1 has what growth?
50.4% (inactive)

Recorded growth for N#Cc1ccc(N2Cc3cc(Cl)ccc3OC3=C2C(=O)N(Cc2ccc(F)cc2)C3=O)cc1 , please?
-34.5% (active)

So what does the record say about growth for CC(=O)OCC1SC(OC(C)=O)C(NC(=O)/C=C/CCl)C(OC(C)=O)C1OC(C)=O (configuration not stated) ?
88.1% (inactive)

Could you tell me which growth is on file for N#CC(C#N)=C1NC(c2ccccc2)=C(c2ccccc2)C(c2ccccc2Cl)=C1C#N ?
81.5% (inactive)

# get_value(readout='growth', item= CN1CCN(CC#CCOC(=O)CNC(=O)[C@]23CCC(C)(C)C[C@H]2C2=CC[C@@H]4[C@@]5(C)CC[C@H](O)C(C)(C)[C@@H]5CC[C@@]4(C)[C@]2(C)CC3)CC1 )
70.7% (inactive)
